Test system: Ps. aeruginosa DY-2
Assay: MIC by agar dilution, Ps. aeruginosa DY-2
Assay type: cell-based
Details: Pseudomonas aeruginosa, DY2, 17 h; Ps. aeruginosa DY-2; agar dilution, Mueller-Hinton agar; read-out: Minimal Inhibitory Concentration (MIC)
MIC: recorded values
Write the value in µg/mL as a bare number.

CCO/N=C(\C(=O)N[C@@H]1C(=O)N2C(C(=O)[O-])=C(C[n+]3ccn4c(Br)ccc4c3C)CS[C@H]12)c1csc(N)n1    25

What value of MIC has been recorded for this entry: CO/N=C(\C(=O)N[C@@H]1C(=O)N2C(C(=O)[O-])=C(C[n+]3ccn4ccc(CO)c4c3)CS[C@H]12)c1nsc(N)n1 1.56

What value of MIC has been recorded for this entry: CO/N=C(\C(=O)N[C@@H]1C(=O)N2C(C(=O)[O-])=C(C[n+]3ccn4c(C#N)ccc4c3C)CS[C@H]12)c1csc(N)n1 12.5

What value of MIC has been recorded for this entry: CON=C(C(=O)NC1C(=O)N2C(C(=O)[O-])=C(C[n+]3ccn4c([N+](=O)[O-])ccc4c3)CSC12)c1csc(N)n1 (stereo not shown) 25

What value of MIC has been recorded for this entry: CON=C(C(=O)NC1C(=O)N2C(C(=O)[O-])=C(C[n+]3ccn4c(C(C)O)ccc4c3)CSC12)c1csc(N)n1 (stereo not shown) 3.13

Attribution: patent US5593984A
